target: T1, human CD33 (human, UniProt P20138 18-259, limits assumed); test: BLI (ForteBio), Fab; column looks row-shifted against KD
T1 construct: Human CD33 immobilized on the BLI sensor tip or the BIAcore C1 chip; also called Siglec-3
T1 sequence (P20138 18-259 limits assumed): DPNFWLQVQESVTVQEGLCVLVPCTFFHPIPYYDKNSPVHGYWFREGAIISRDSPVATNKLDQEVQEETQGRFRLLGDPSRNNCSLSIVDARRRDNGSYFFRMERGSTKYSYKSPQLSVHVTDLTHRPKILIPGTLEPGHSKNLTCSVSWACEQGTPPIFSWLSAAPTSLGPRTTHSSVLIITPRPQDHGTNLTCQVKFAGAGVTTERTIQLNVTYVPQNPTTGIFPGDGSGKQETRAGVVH
The threshold is inclusive: kon of exactly 700000 M⁻¹ s⁻¹ counts as true; values below receive false.

BINDER	CAT
AB-63.10 (antibody, V domains shown) VH: QVQLVQSGAEVKKPGASVKVSCKASGYTETDYNLHWVRQAPGQGLEWIGFIYPSNGITGYAQKFQGRVTMTVDTSTSTVYMELSSLRSEDTAVYYCARSDVDYFDYWGQGTLVTVSS VL: DIVLTQSPDSLAVSLGERATINCRASQDVSTSTYSYMHWYQQKPGQPPKLLIKYASNLESGVPDRFSGSGSGTDFTLTISSLQAEDVAVYYCQHSWELPLTFGQGTKLEIK	false
AB-63.18 (antibody, V domains shown) VH: QVQLVQSGAEVKKPGSSVKVSCKASGYTHTDYNLHWVRQAPGQGLEWIGFIYPSNGITGYAQKFQGRVTMTVDTSTSTVYMELSSLRSEDTAVYYCARSDVDYFDYWGQGTLVTVSS VL: DIVLTQSPDSLAVSLGERATINCRASQSVSTSTYSYMHWYQQKPGQPPKLLIKYESNLESGVPDRFSGSGSGTDFTLTISSLQAEDVAVYYCQHSWEIPLTFGQGTKLEIK	true
AB-63.4 (antibody, V domains shown) VH: QVQLVQSGAEVKKPGASVKVSCKASGYTFTDYNYHWVRQAPGQGLEWIGFIYPSNGITGYAQKFQGRVTMTVDTSTSTVYMELSSLRSEDTAVYYCARSTVDYFDYWGQGTLVTVSS VL: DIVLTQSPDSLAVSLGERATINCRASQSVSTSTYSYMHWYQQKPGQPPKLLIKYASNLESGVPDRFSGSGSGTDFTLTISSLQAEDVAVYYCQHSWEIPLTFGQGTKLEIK	false
AB-63.7 (antibody, V domains shown) VH: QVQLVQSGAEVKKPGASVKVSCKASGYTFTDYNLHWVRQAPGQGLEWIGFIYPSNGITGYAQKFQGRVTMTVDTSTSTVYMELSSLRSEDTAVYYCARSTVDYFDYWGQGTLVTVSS VL: DIVLTQSPDSLAVSLGERATINCRASQDVSTSTYSYMHWYQQKPGQPPKLLIKYAFNLESGVPDRFSGSGSGTDFTLTISSLQAEDVAVYYCQHSWEIPLEFGQGTKLEIK	true

Query: Check this binder for kon at or above 700000 M⁻¹ s⁻¹: AB-63.8 (antibody, V domains shown) VH: QVQLVQSGAEVKKPGSSVKVSCKASGVTFTDYNYHWVRQAPGQGLEWIGFIYPSNGITGYAQKFQDRVTMTVDTSTSTVYMELSSLRSEDTAVYYCARSTVDYFDYWGQGTLVTVSS VL: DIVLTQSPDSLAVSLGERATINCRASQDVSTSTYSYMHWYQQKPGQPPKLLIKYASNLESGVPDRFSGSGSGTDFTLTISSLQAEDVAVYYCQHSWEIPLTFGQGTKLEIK
Result: true

Query: Check this binder for kon at or above 700000 M⁻¹ s⁻¹: AB-63.14 (antibody, V domains shown) VH: QVQLVQSGAEVKKPGSSVKVSCKASGYTFTDYNLHWVRQAPGQGLEWIGFIYPSNGITGYAQKFQGRVTMTVDTSTSTVYMELSSLRSEDTAVYYCARSDVDYFDYWGQGTLVTVSS VL: DIVLTQSPDSLAVSLGERATIDCKASQDVSTSTYSYMHWYQQKPGQPPKLLIKYASNLESGVPDRFSGSGSGTDFTLTISSLQAEDVAVYYCQHSWEIPLTFGQGTKLEIK
Result: true

Query: Check this binder for kon at or above 700000 M⁻¹ s⁻¹: AB-63.12 (antibody, V domains shown) VH: QVQLVQSGAEVKKPGASVKVSCKASGYTFTDYNFHWVRQAPGQGLEWIGFIYPSNGITGYAQKFTGRVTMTVDTSTSTVYMELSSLRSEDTAVYYCARSTVDYFDDWGQGTLVTVSS VL: DIVLTQSPDSLAVSLGERATINCRASQDVSTSTYSYMHWYQQKPGQPPKLLIKYASNVESGVPDRFSGSGSGTDFTLTISSLQAEDVAVYYCQHSWAIPLTFGQGTKLEIK
Result: true

Query: Check this binder for kon at or above 700000 M⁻¹ s⁻¹: AB-63.5 (antibody, V domains shown) VH: QVQLVQSGAEVKKPGASVKVSCKASGYTFTDYNNHWVRQAPGQGLEWIGFIYPSNGITGYAQKFQGRVTMTVDTSTSTVYMELSSLRSEDTAVYYCARSDVDYFDYWGQGTLVTVSS VL: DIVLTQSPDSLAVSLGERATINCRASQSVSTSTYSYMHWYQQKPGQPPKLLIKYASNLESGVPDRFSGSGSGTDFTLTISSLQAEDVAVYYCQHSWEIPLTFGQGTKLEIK
Result: true
